assay.notes: yeast display, Sf9 membrane polyspecificity reagent, FACS + sequencing; frameworks hold sequencing errors
measured.property: polyreactivity (PSR sort gate)

Reference set (5 entries):
>>> result("QVQLVESGGGLVQAGGSLRLSCAASGFTKAYAMGWSRQAPGKERELVAVISDRAGSTYYADSVKGRFTISRDNPKNTVYLQMNSLKPEDTAVYYCAADGIGYSYHGRPYIYEYWGQGTQVTVSS")
"low polyreactivity"
>>> result("QVQLVESGGGLVQAGGSLRLSCAASGSTFRRNAMGWYRQAPGKERELVAAISAGGGSTYYADSVKGRFTISRDNAKNTVYLQMNSLKPEDTAVYYCNVAGSGVRRMGYWGQGTQVTVSS")
"high polyreactivity"
>>> result("QVQLVESGGGLVQAGGSLRLSCAASGSTFIYYVKGWYRQAPGNERELVAAISGRTGSTYYADSVKGRFTISRDNAKNTVYLQMNSLTPEDTAVYYCAKRGFLYWDHVSGFYRYDYWGQGTQVTVSS")
"low polyreactivity"
>>> result("QVQLVESGGGLVQAGGSLRLSCAASGRTFYRYAMGWYRQAPGKEREFVARITTSGGSTYYADSVKGRFTISRDNAKNTVYLEMNSLKPEDTAVYYCAASAPYIYYWGQGTQVTVSS")
"high polyreactivity"
>>> result("QVQLVESGGGLVQAGGSLRLSCAASGSIFTLYAIGWSRQAPGKERELVAAISRRGGSTYYADSVKGRFTISRDNAKNTVYLQMNSLKPEDTAVYYCNAYRSNYLIGSSSYGLDYWGHGTQVTVSS")
"high polyreactivity"

Look at this sequence and give its reported polyreactivity (PSR sort gate). "QVHLVESAGGLLQAAASLRLSGDASGSIISSYAMGWYRQAPGKERQLVAAITRSGGSTYYADSVKGRFTISRDYAKKTVYLQMNSLNPEDTAVYYCAARSYVHVFVRMYYWGQGTQVTVSS"
high polyreactivity

// next record "QVQLVESGGGLVQAGGSLRLSCAASGRIFFVYAMGWYRQAPGKERELVAAITSSGGGTYYADSVKGRFTISRDNAKNTVYLQMNSLKPEDTAVYYCATRYPYRPGYEYWGQGTQVTVSS"
low polyreactivity

// next record "QVQLQESGGGLVQAGGSLRLSCAASGYISWYSEMGWYRQAPGKEREFVATITCGTTTNYAVSVKGRFTISRDNAKNTVYLQKNSLKPEDTAVYYCAVHDARHYEFDYWGQGTQVTVSS"
high polyreactivity

// next record "QVQLVESGGGLVQAGGSLRLSCAASGRTFYRYAMGWYRQAPGKERELVAVITSGSRTKYADSVKGRFTISRDNAKNTVYLQMNSLKPEDTAVYYCNAYGVRYRQAFVRYNYWGQGTQVTVSS"
high polyreactivity

// next record "QVQLVESGGRLVQAGGSLRLSCAASGRTFDFYAMGWYRQAPGKERELVAAISSRGGSTYYADSVKGRFTISRDNAKNTVYLQMNSLKPEDTAVYYCAKDLGYRGRYNYWGQGTQVTVSS"
low polyreactivity

// next record "QVQLVESGGGLVQAGGSLRLSCAASGSIFSWNAMGWYRQAPGKERELVAGITWSGGGTSYADSVKGRFTISRDNAKNTVYLQMNSLKPEDTAVYYCAKEWIFDFNYWGQGTQVTVSS"
low polyreactivity

// next record "QVQLVESGGGLVQAGGSLRLSCAASGSIFSTYAMGWYRQAPGKERELVAAITRRGGSTYYADSVKGRFTISRDNAKNTVYLQMNSLKPEDTAVYYCNAAAKSRMDYWGQATQVTVSS"
high polyreactivity

// next record "QVKLLDSGGGLVQAGGSLRLTSAASGRIFYTNAMGWYRQEPGKERELVAVISWGGDTTYYADSVKGRFTISRDNAKNTVYLQMTSLKPEDTAVYYCNADWGATYEIYDSWGQGTQVTVST"
low polyreactivity

// next record "QVQLVESGGGLVQAGGSLRLNCAASGRIFDVNAMGWYRQAPGKERELVAAITYSDGSTYYADSLKGRFTISRDTAKNTVYLQMNSLKPEDTAVYYCAATHEPVTPQPYGYWGQGTQVTVSS"
low polyreactivity

// next record "HVQLVESGGGLVQAGGSLRLSCAASGTFYKNAMGWYRQAPGKERELVAAISWRGGRTYADSVKGRFTISRDNAKNSVYLQMNSLKPEDTAVYYCNKRFYPEHYYWGQGTQVTVSS"
high polyreactivity

// next record "QVQLVESGGGLVQAGGSLRLSCAASGFTFYGYAMGWYRQAPGKERELVAAISSSGGRTYYADSVKGRFTISRDNAKNTVYLQMNSLKPEDTAVYYCAADYTSRDYYYWGQGTHVTVSS"
high polyreactivity

// next record "QVQLVESGGGLVKAGGSLRLSCAASGFTFTIYAMGWYRQAPGKERELVAAITNSGDTNYADSVKGRFTISRDNAKNTVYLQMNSLKPEDTAVYYCAKAYYIGYFFNFGSWGQGTQVTVSS"
low polyreactivity
